Where do these numbers come from? They come from the supplement of paper PMC11061612.

- Tested on: COLO-678 (Colorectal Carcinoma);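 further: after 72 h of two-drug dosing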
- method_notes: Bliss excess, mean over the matrix (fraction); higher = more synergy

compound	Bliss excess
COc1cccc(OCCCN)c1-c1cc(Nc2cnc(C#N)cn2)n[nH]1 [Prexasertib] + C[C@@H]1COCCN1C2=NC(=NC(=C2)C3(CC3)[S@](=N)(=O)C)C4=C5C=CNC5=NC=C4 [AZD6738] (first compound max 1 µM, 7x7, partner max 10 µM)	-0.0346
Cn1cnc2c(F)c(Nc3ccc(Br)cc3Cl)c(C(=O)NOCCO)cc21 [Selumetinib] + CCN(CCO)CCCOc1ccc2c(Nc3cc(CC(=O)Nc4cccc(F)c4)[nH]n3)ncnc2c1 [AZD2811] (first compound max 10 µM, 7x7, partner max 1 µM)	-0.0223
Cc1cc2ncnn2cc1Nc1ncc2c(n1)n(C1CCOCC1)c(=O)n2C [AZD7648] + O=C(c1cc(Cc2n[nH]c(=O)c3ccccc23)ccc1F)N1CCN(C(=O)C2CC2)CC1 [Olaparib] (first compound max 10 µM, 7x7, partner max 10 µM)	-0.0177
CN(CCO)CC[C@H](CSc1ccccc1)Nc1ccc(S(=O)(=O)NC(=O)c2ccc(N3CCC([C@@H](O)c4ccccc4-c4ccc(Cl)cc4)CC3)cc2)cc1S(=O)(=O)C(F)(F)F [AZD4320] + Cn1cnc2c(F)c(Nc3ccc(Br)cc3Cl)c(C(=O)NOCCO)cc21 [Selumetinib] (first compound max 1 µM, 7x7, partner max 3 µM)	0.0536

###

// reported combination Emax per item
- System: GR-ST (B-Lymphoblastic Leukemia)
- method_notes: combination Emax (second highest fraction inhibited in the dose matrix, 72 h); higher = more inhibition; extreme values may be limits of the assay

compound	combination Emax
Cc1cc2ncnn2cc1Nc1ncc2c(n1)n(C1CCOCC1)c(=O)n2C [AZD7648] + CN(C)CCCOc1ccc(-c2ccc3ncc4c(c3c2)n(C2CCOCC2)c(=O)n4C)cn1 [AZD0156] (first compound max 10 µM, 7x7, partner max 1 µM)	0.489
CCN(CCO)CCCOc1ccc2c(Nc3cc(CC(=O)Nc4cccc(F)c4)[nH]n3)ncnc2c1 [AZD2811] + O=C(c1cc(Cc2n[nH]c(=O)c3ccccc23)ccc1F)N1CCN(C(=O)C2CC2)CC1 [Olaparib] (first compound max 1 µM, 7x7, partner max 10 µM)	0.448

###

- Test system: SW837 (Colorectal Carcinoma)
- method_notes: combination Emax (second highest fraction inhibited in the dose matrix, 72 h); higher = more inhibition; extreme values may be limits of the assay
Readings of combination Emax for the listed molecules
measured_attribute: combination Emax

molecule	measured_attribute	observed_measurement
COc1cccc(OCCCN)c1-c1cc(Nc2cnc(C#N)cn2)n[nH]1 [Prexasertib] + C[C@@H]1COCCN1C2=NC(=NC(=C2)C3(CC3)[S@](=N)(=O)C)C4=C5C=CNC5=NC=C4 [AZD6738] (first compound max 1 µM, 7x7, partner max 10 µM)	combination Emax	0.752
CC1(C)CCC(CN2CCN(c3ccc(C(=O)NS(=O)(=O)c4ccc(NCC5CCOCC5)c([N+](=O)[O-])c4)c(Oc4cnc5[nH]ccc5c4)c3)CC2)=C(c2ccc(Cl)cc2)C1 [Venetoclax] + C=CCn1c(=O)c2cnc(Nc3ccc(N4CCN(C)CC4)cc3)nc2n1-c1cccc(C(C)(C)O)n1 [AZD1775] (first compound max 1 µM, partner max 1 µM)	combination Emax	0.453
